Assay: Intranasal bioavailability of hydromorphone conjugates
Details: rats, corrected value calculated based on the bioavailability of the control (HM)
Residues, ends and D or L forms follow the SMILES beside them. *: point of attachment. X4 = CC(=O)Oc1ccc2c3c1OC1C(O*)=CCC4[C@@H](C2)N(C)CC[C@]314
Hi, to clarify the labels: label 1 covers IN AUC % from 70% upward, label 0 covers anything below 70%.

Worked examples follow.
Q: Assess whether reported IN AUC % for CC[C@H](C)[C@H](NC(=O)[C@H](Cc1ccccc1)NC(=O)[C@H](Cc1ccccc1)NC(=O)[C@H](Cc1ccc(O)cc1)NC(=O)[C@@H](N)Cc1ccc(O)cc1)C(=O)OC1=CCC2[C@H]3Cc4ccc(OC(C)=O)c5c4[C@@]2(CCN3C)C1O5 (some centres unmarked) [YYFFI-HM-OAc] (H-YYFFI-X4) sits at 70% or higher.
A: label 0

Q: Assess whether reported IN AUC % for CC(C)C[C@H](NC(=O)[C@H](Cc1ccc(O)cc1)NC(=O)[C@@H](N)Cc1ccc(O)cc1)C(=O)OC1=CCC2[C@H]3Cc4ccc(O)c5c4[C@@]2(CCN3C)C1O5 (some centres unmarked) sits at 70% or higher.
A: label 1

More entries:
Q: Assess whether reported IN AUC % for CC(C)[C@H](NC(=O)[C@H](CCCCN)NC(=O)[C@@H](N)CCCCN)C(=O)OC1=CCC2[C@H]3Cc4ccc(O)c5c4[C@@]2(CCN3C)C1O5 (some centres unmarked) sits at 70% or higher.
A: label 1

Q: Assess whether reported IN AUC % for CC(C)[C@H](NC(=O)[C@H](CCC(=O)O)NC(=O)[C@@H](N)CCC(=O)O)C(=O)OC1=CC[C@H]2[C@H]3Cc4ccc(O)c5c4[C@@]2(CCN3C)[C@H]1O5 sits at 70% or higher.
A: label 0

Q: Assess whether reported IN AUC % for CC[C@H](C)[C@H](NC(=O)[C@H](Cc1ccc(O)cc1)NC(=O)[C@@H](N)Cc1ccc(O)cc1)C(=O)OC1=CCC2[C@H]3Cc4ccc(O)c5c4[C@@]2(CCN3C)C1O5 (some centres unmarked) sits at 70% or higher.
A: label 1

Q: Assess whether reported IN AUC % for CC(C)C[C@H](NC(=O)CNC(=O)CN)C(=O)OC1=CCC2[C@H]3Cc4ccc(O)c5c4[C@@]2(CCN3C)C1O5 (some centres unmarked) sits at 70% or higher.
A: label 0

Q: Assess whether reported IN AUC % for CC(C)C[C@H](NC(=O)[C@H](CCC(=O)O)NC(=O)[C@@H](N)CCC(=O)O)C(=O)OC1=CC[C@H]2[C@H]3Cc4ccc(O)c5c4[C@@]2(CCN3C)[C@H]1O5 sits at 70% or higher.
A: label 1

Q: Assess whether reported IN AUC % for CC(C)C[C@H](NC(=O)[C@@H]1CCCN1C(=O)[C@@H]1CCCN1)C(=O)OC1=CCC2[C@H]3Cc4ccc(O)c5c4[C@@]2(CCN3C)C1O5 (some centres unmarked) sits at 70% or higher.
A: label 0

Q: Assess whether reported IN AUC % for CC[C@H](C)[C@H](NC(=O)[C@H](CCC(=O)O)NC(=O)[C@@H](N)CCC(=O)O)C(=O)OC1=CC[C@H]2[C@H]3Cc4ccc(O)c5c4[C@@]2(CCN3C)[C@H]1O5 sits at 70% or higher.
A: label 0

Source listed as patent US20100144645A1.
